experiment: qHTS assay to identify small molecule agonists of the AP-1 signaling pathway - cell viability counter screen (AID 1159525); further: nearly all actives have a fitted effect of over 55% in size
recorded-conditions: ME-180 (cervical carcinoma) AP-1-bla cells viability, ATP luminescence, 5 h; series mostly up to 76.8 µM
Inconclusive results are not listed. Calls of active or inactive are those of the source. The call rests on the fitted dose curve.
Possible outcomes: active, inactive

molecule	assigned-class
Cn1[nH]nnc1=S	inactive
CC(=[OH+])/C=C(/C)[O-].CC(=[OH+])/C=C(\C)[O-].CC(=[OH+])/C=C(\C)[O-].[Fe]	inactive
C[C@]12CC[C@@H]3c4ccc(OC(=O)N(CCCl)CCCl)cc4CC[C@H]3[C@@H]1CC[C@@H]2O	inactive
ClC1=C(Cl)[C@]2(Cl)[C@@H]3[C@@H](Cl)[C@@H](Cl)C[C@@H]3[C@@]1(Cl)C2(Cl)Cl	inactive
CCCCOP(=O)(CCCC)OCCCC	inactive
O=[N+]([O-])O.O=[N+]([O-])O.[Cd]	inactive
COC[C@H](C)N(C(=O)CCl)c1c(C)csc1C	inactive
CC(C)[C@H](C(=O)OC(C#N)c1cccc(Oc2ccccc2)c1)c1ccc(OC(F)F)cc1 (some centres not stated)	inactive
N#Cc1ccccc1N	inactive
Nc1ccc([N+](=O)[O-])cc1Cl	inactive
COP(=O)(CCC(=O)NCO)OC	inactive
C[C@H]1CC[C@@H]2[C@@H](C)[C@H]3[C@H](C[C@H]4[C@@H]5CC=C6CC(O[C@@H]7O[C@H](CO)[C@H](O)[C@H](O[C@@H]8O[C@H](CO)[C@@H](O)[C@H](O)[C@H]8O)[C@H]7O[C@H]7O[C@@H](C)[C@H](O)[C@@H](O)[C@H]7O)CC[C@]6(C)[C@H]5CC[C@]34C)N2C1 (some centres not stated)	active
ClC1=C(Cl)[C@]2(Cl)[C@@H]3[C@@H](Cl)[C@H](Cl)C[C@@H]3[C@@]1(Cl)C2(Cl)Cl	inactive
CNC(C)Cc1ccc2c(c1)OCO2 (configuration not stated)	inactive
CN(C)C1CSSSC1	inactive
COC(=O)N(C(=O)N1COC2(C(=O)OC)Cc3cc(Cl)ccc3C2=N1)c1ccc(OC(F)(F)F)cc1 (configuration not stated)	inactive
COP(=S)(OC)Oc1cc(Cl)c(Br)cc1Cl	inactive
N#CNC#N	inactive
C[C@@H]1O[C@@H](O[C@H]2C[C@@H](O)[C@]3(CO)[C@H]4[C@H](O)C[C@]5(C)[C@@H](C6=CC(=O)OC6)CC[C@]5(O)[C@@H]4CC[C@]3(O)C2)[C@H](O)[C@H](O)[C@H]1O	inactive
CCCN(CCC)CCc1c[nH]c2ccccc12	inactive
CN(C)C(=S)S	active
BrC(Br)C(Br)(Br)Br	inactive
c1ccc2c(c1)OCC(C1=NCCN1)O2 (configuration not stated)	inactive
N#CCCSCCC#N	inactive
C[C@@H](Oc1ccc(Cl)cc1Cl)C(=O)O	inactive
[Cl][Sb]([Cl])[Cl]	inactive
CCCCCCCCCCCCCC[P+](CCCCCC)(CCCCCC)CCCCCC (tested in a mixture with another compound)	active

---

experiment: A CellTox Green Cytotoxicity Assay to monitor cytotoxicity in HEK293 cells - 16 hour (AID 1224888); further: nearly all actives have a fitted effect of over 35% in size
recorded-conditions: CellTox Green fluorescence; series mostly up to 76.8 µM
Results filed as inconclusive are left out. The source made the active and inactive calls. The call rests on the fitted dose curve; in most records, active means well fitted activation curve with a large enough effect in the repeat runs; inconclusive means weak or mixed curves; inactive means flat fitted curve, though single readings scatter.
Outcome codes: active, inactive

> print(dat)
                                   compound  assigned.class
1        C1CCC2CCCCC2C1 (centres undefined)        inactive
2                              CC(C)OC(=S)S        inactive
3  CC(C)(C)c1cc([N+](=O)[O-])cc(C(C)(C)C)c1O        inactive
4                               C=CCOC(N)=O        inactive
5                 c1ccc(Nc2ccc3ccccc3c2)cc1        inactive
6  CS(=O)(=O)c1ccc(C(=O)C2C(=O)CCCC2=O)c([N+](=O)[O-])c1          active
7  CCS(=O)(=O)c1cccnc1S(=O)(=O)NC(=O)Nc1nc(OC)cc(OC)n1        inactive
8                                 BrC(Br)Br        inactive
9  O=c1c(C2CC(c3ccc(-c4ccc(Br)cc4)cc3)Cc3ccccc32)c(O)sc2ccccc12 (centres undefined)        inactive

---

experiment: qHTS RealTime-Glo MT Cell Viability Assay in HEK293 cells - 16 hour (AID 1224872); further: nearly all actives have a fitted effect of over 50% in size
recorded-conditions: RealTime-Glo luminescence; series mostly up to 76.8 µM
Results filed as inconclusive are left out. Calls of active or inactive are those of the source. The call rests on the fitted dose curve; in most records, active means well fitted cell-killing curve with a large enough effect in the repeat runs; inconclusive means weak or mixed curves, or effect the other way; inactive means flat fitted curve, though single readings scatter.
Possible outcomes: True (active), False (inactive)

> print(dat)
                                    compound  assigned.class
 1                     Clc1ccc(-c2ccccc2)cc1           False
 2  CCCCN(CCCC)C(=S)[S-].CCCCN(CCCC)C(=S)[S-].[Zn+2]            True
 3           CCCCOCN(C(=O)CCl)c1c(CC)cccc1CC           False
 4  C=CC(=O)OCC(COC(=O)C=C)(COC(=O)C=C)COC(=O)C=C            True
 5  O=C(NC(=O)c1c(F)cccc1F)Nc1cc(Cl)c(OC(F)(F)C(F)F)c(Cl)c1           False
 6  CCOCn1c(-c2ccc(Cl)cc2)c(C#N)c(Br)c1C(F)(F)F            True
 7    COCC(=O)N(c1c(C)cccc1C)[C@H](C)C(=O)OC           False
 8                    O=C/C(Cl)=C(/Cl)C(=O)O           False
 9               CC(O)C#N (stereo not given)           False
10                 Oc1ccc2ccc3cccc4ccc1c2c34            True
11             Nc1ccccc1C(=O)OC/C=C/c1ccccc1            True
12                            COc1ccc(N)cc1N            True
13  CC(C)[C@H](C(=O)OC(C#N)c1cccc(Oc2ccccc2)c1)c1ccc(OC(F)F)cc1 (stereo not given in full)           False
14                        CCCSP(=O)(OCC)SCCC           False
15              Cc1cc(Cl)ccc1O[C@H](C)C(=O)O           False
16                          CC(=O)[O-].[Tl+]           False
17    Clc1ccc(C(c2ccc(Cl)cc2)C(Cl)(Cl)Cl)cc1            True
18  CC(C)C1CCC(Cc2ccc(Cl)cc2)C1(O)Cn1cncn1 (stereo not given)            True
19  CCCN(CCC)c1c([N+](=O)[O-])cc(S(N)(=O)=O)cc1[N+](=O)[O-]            True
20  CC(=[OH+])/C=C(/C)[O-].CC(=[OH+])/C=C(\C)[O-].CC(=[OH+])/C=C(\C)[O-].[Al]           False
21                          N#C/C=C/c1ccccc1           False
22  O=[N+]([O-])c1ccc(Oc2ccc(C(F)(F)F)cc2[N+](=O)[O-])cc1            True
23  Cc1cc(C)cc(OP(=O)(Oc2cc(C)cc(C)c2)Oc2cc(C)cc(C)c2)c1           False
24                           O=c1ssc(Cl)c1Cl            True
25                           ClC(Cl)=C(Cl)Cl           False
26  Cc1cc(C)c(C2=C(OC(=O)CC(C)(C)C)C3(CCCC3)OC2=O)c(C)c1           False
27     N#CCCC(Br)(C#N)CBr (stereo not given)            True
28         COC[C@H](C)N(C(=O)CCl)c1c(C)csc1C           False
29                                  CC(C)CBr           False
30  FC(F)(F)c1cccc(C2=CCN(CCc3ccc4ccccc4c3)CC2)c1           False
31            CC(C)CC(C)N (stereo not given)           False
32        Fc1ccc(Oc2ccnc3cc(Cl)cc(Cl)c23)cc1            True
33  O=c1c(C2CC(c3ccc(-c4ccc(Br)cc4)cc3)Cc3ccccc32)c(O)sc2ccccc12 (stereo not given)           False
34  O=[N+]([O-])c1cc([N+](=O)[O-])c2ccccc2c1           False
35  Nc1c(Oc2ccccc2)cc(O)c2c1C(=O)c1ccccc1C2=O            True
36                              COP(N)(=S)OC           False
37                       CCCCCCCCc1ccc(O)cc1            True
38                               CCCCCCCCCBr           False
39  CCN(CC)C(=S)[S-].CCN(CC)C(=S)[S-].[Zn+2]            True
40  Cn1cc(C2=C(c3cn(C4CCN(Cc5ccccn5)CC4)c4ccccc34)C(=O)NC2=O)c2ccccc21           False
41                              CCCCCCCCCCBr           False
42                                   N#CNC#N           False
43  C[C@]12CC[C@@H]3c4ccc(OC(=O)N(CCCl)CCCl)cc4CC[C@H]3[C@@H]1CC[C@@H]2O           False
44  CCOC(=O)OC1=C(c2cc(C)ccc2C)C(=O)NC12CCC(OC)CC2 (stereo not given)           False
45              S=C(SSC(=S)N1CCCCC1)N1CCCCC1            True

All figures here come from PubChem BioAssay (Tox21).
